All values here come from ChEMBL document CHEMBL1128640.

# ASSAY_EXPLANATION: Bioavailability in rat
# Assay type: ADME, organism-based
# RUN_PARAMETERS: in vivo
QUANTITY_NAME: bioavailability (%)
All answers are understood in %, so give the number only.

Looking up CC1Cc2c(OCc3ccc(-c4ccccc4)cn3)ccc3c2c(c(COc2ccccc2CC(=O)O)n3Cc2ccc(Cl)cc2)S1 (centres undefined) , I see its bioavailability listed as 35

Looking up CC1Cc2c(OCc3ccc(-c4ccccc4)cn3)ccc3c2c(c(CCSc2ccccc2C(=O)O)n3Cc2ccc(Cl)cc2)S1 (centres undefined) , I see its bioavailability listed as 10

Looking up CC1Cc2c(OCc3ccc(-c4ccccc4)cn3)ccc3c2c(c(CCOc2ccccc2CC(=O)O)n3Cc2ccc(Cl)cc2)S1 (centres undefined) , I see its bioavailability listed as 15

Looking up CC1Cc2c(OCc3ccc(-c4ccccc4)cn3)ccc3c2c(c(CCOc2ccccc2CC(=O)O)n3Cc2ccc(F)cc2)S1 (centres undefined) , I see its bioavailability listed as 4

###

Record form. Attribute: IC50. Fill in for each entry.
# MEASUREMENT_TARGET: Polyunsaturated fatty acid 5-lipoxygenase (Homo sapiens)
# Sequence (P09917 whole entry): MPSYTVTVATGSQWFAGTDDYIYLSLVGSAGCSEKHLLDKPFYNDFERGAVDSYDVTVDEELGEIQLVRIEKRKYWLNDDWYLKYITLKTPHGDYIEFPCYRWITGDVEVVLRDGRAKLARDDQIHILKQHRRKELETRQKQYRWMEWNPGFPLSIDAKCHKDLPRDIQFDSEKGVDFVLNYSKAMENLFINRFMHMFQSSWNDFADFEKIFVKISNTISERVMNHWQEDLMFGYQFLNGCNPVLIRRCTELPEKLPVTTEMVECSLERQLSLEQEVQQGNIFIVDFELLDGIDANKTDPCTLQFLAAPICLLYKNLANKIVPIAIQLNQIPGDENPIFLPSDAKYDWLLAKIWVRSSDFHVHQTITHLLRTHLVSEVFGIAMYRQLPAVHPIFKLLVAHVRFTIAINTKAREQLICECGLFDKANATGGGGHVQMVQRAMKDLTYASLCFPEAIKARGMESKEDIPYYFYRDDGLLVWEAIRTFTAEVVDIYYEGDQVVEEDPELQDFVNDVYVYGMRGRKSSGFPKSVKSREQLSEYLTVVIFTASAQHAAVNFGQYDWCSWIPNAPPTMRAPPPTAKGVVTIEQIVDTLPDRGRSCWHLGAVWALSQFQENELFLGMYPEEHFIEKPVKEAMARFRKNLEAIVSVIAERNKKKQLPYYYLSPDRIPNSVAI
All answers are understood in nM, so give the number only.

Looking up CC1Cc2c(OCc3ccc4ccccc4n3)ccc3c2c(c(COc2ccccc2CC(=O)O)n3Cc2ccc(Cl)cc2)S1 (configuration not stated) , I see its IC50 listed as 100

Looking up CC1Cc2c(OCc3ccc(-c4ccccc4)cn3)ccc3c2c(c(CSc2ccccc2C(=O)O)n3Cc2ccc(Cl)cc2)S1 (configuration not stated) , I see its IC50 listed as 30

Looking up CC1Cc2c(OCc3ccccn3)ccc3c2c(c(CSc2ccccc2C(=O)O)n3Cc2ccc(Cl)cc2)S1 (configuration not stated) , I see its IC50 listed as 55

Looking up CC1Cc2c(OCc3ccc(-c4ccccc4)cn3)ccc3c2c(c(COc2ccccc2CC(=O)O)n3Cc2cccc(Cl)c2)S1 (stereo in doubt; (+)14b) , I see its IC50 listed as 95

Looking up CC1Cc2c(OCc3ccc4ccccc4n3)ccc3c2c(c(CSc2ccccc2C(=O)O)n3Cc2ccc(Cl)cc2)S1 (configuration not stated) , I see its IC50 listed as 70

Looking up CC1Cc2c(OCc3ccc(-c4ccccc4)cn3)ccc3c2c(c(CCSc2ccccc2C(=O)O)n3Cc2ccc(Cl)cc2)S1 (configuration not stated) , I see its IC50 listed as 30

Looking up COc1ccc(COc2ccc3c4c2CC(C)Sc4c(CSc2ccccc2C(=O)O)n3Cc2ccc(Cl)cc2)nc1 (configuration not stated) , I see its IC50 listed as 52

Looking up CC1Cc2c(OCc3ccc(-c4ccccc4)cn3)ccc3c2c(c(COc2ccccc2CC(=O)O)n3Cc2ccc(Cl)cc2)S1 (configuration not stated) , I see its IC50 listed as 26

Looking up CC1Cc2c(OCc3ccc(-c4ccccc4)cn3)ccc3c2c(c(CCOc2cccc(C(=O)O)c2)n3Cc2ccc(Cl)cc2)S1 (configuration not stated) , I see its IC50 listed as 170

Looking up CC1Cc2c(OCc3ccc(-c4ccccc4)cn3)ccc3c2c(c(CCOc2ccccc2CC(=O)O)n3Cc2ccc(F)cc2)S1 (configuration not stated) , I see its IC50 listed as 60

Looking up CC1Cc2c(OCc3ccc(-c4ccccc4)cn3)ccc3c2c(c(CCOc2ccccc2CC(=O)O)n3Cc2ccc(Cl)cc2)S1 (configuration not stated) , I see its IC50 listed as 60

###

Record form. Attribute: bioavailability. Fill in for each entry.
# ASSAY_EXPLANATION: Bioavailability in rat
# Format: ADME, organism-based
# RUN_PARAMETERS: in vivo
All answers are understood in %, so give the number only.

Looking up CC1Cc2c(OCc3ccc(-c4ccccc4)cn3)ccc3c2c(c(CCOc2ccccc2C(=O)O)n3Cc2ccc(Cl)cc2)S1 (stereo not drawn) , I see its bioavailability listed as 37

Looking up CC1Cc2c(OCc3ccc(-c4ccccc4)cn3)ccc3c2c(c(CCOc2ccccc2CC(=O)O)n3Cc2cccc(F)c2)S1 (stereo not drawn) , I see its bioavailability listed as 44
